Biological target: Glucocorticoid Receptor (Homo sapiens, UniProt P04150)
Construct: These cells express large amount of the GR and are very responsive to GC treatment; endogenous in cells; host or cells: A549 cells transiently transfected with the MMTV-LUC reporter
Sequence (P04150 1-777): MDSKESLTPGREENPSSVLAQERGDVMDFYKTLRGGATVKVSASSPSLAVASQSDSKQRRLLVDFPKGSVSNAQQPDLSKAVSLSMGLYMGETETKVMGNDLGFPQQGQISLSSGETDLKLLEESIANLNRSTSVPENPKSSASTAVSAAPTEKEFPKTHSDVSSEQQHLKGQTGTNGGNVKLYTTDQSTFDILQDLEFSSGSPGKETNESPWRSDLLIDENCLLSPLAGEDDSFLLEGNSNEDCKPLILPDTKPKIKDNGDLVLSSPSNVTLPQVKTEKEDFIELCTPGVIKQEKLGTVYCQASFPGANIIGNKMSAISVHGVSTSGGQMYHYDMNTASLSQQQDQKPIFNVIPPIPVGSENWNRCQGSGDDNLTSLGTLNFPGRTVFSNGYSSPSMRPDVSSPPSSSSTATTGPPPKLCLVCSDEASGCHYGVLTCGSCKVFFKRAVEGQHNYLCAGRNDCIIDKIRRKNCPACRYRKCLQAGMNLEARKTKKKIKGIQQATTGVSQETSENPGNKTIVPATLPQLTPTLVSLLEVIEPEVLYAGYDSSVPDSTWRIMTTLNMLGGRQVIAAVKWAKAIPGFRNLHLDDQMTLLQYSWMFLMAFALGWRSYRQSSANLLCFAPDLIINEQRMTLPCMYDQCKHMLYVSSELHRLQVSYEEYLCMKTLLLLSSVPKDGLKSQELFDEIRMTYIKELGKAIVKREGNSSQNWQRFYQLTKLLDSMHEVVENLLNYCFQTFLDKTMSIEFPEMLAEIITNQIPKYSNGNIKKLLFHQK
Assay: Trans-Activation Modulation of Glucocorticoid Receptor (GRAMMER), MMTV-LUC reporter gene in A549 cells
Type: cell-based
Conditions: inflection point; A549 cells; Table 1; read-out: Transactivation A549 Cells GRAMMER IP
Quick reference: pEC50 of the listed items.
# pEC50 is unitless: minus log10 of the molar concentration; print number only

Reference set (3 entries):
* C[C@]12Cc3cnn(-c4ccc(F)cc4)c3C=C1CC[C@@H]2C(=O)N(CCc1ccccc1F)CC(O)CC(F)(F)F (stereo partly shown) [Compound 87] | 6.54
* C[C@]12Cc3cnn(-c4ccc(F)cc4)c3C=C1CC[C@@H]2C(=O)N(CCO)CC(=O)c1coc2ccccc12 | 5.48
* COc1ccccc1CCN(CC(O)C(F)(F)F)C(=O)[C@H]1CCC2=Cc3c(cnn3-c3ccc(F)cc3)C[C@@]21C (stereo partly shown) | 6.44

[Q] Query: pEC50; subject: `CO[C@H](C)CN(C)C(=O)[C@H]1CCC2=Cc3c(cnn3-c3ccc(F)cc3)C[C@@]21C`
[A] 6.31

[Q] Field request: pEC50 | item: `C[C@]12Cc3cnn(-c4ccc(F)cc4)c3C=C1CC[C@@H]2C(=O)N1CCCC(=O)CC1`
[A] 5.81

[Q] // pEC50 lookup, key: `CCCCN(CC)C(=O)[C@H]1CCC2=Cc3c(cnn3-c3ccc(F)cc3)C[C@@]21C`
[A] 6.42

[Q] What value of pEC50 has been recorded for this entry: `CN(C(=O)[C@H]1CCC2=Cc3c(cnn3-c3ccc(F)cc3)C[C@@]21C)C1CCCCC1`
[A] 6.40

###

Target: Glucocorticoid Receptor (Homo sapiens, UniProt P04150)
Construct: These cells express large amount of the GR and are very responsive to GC treatment; endogenous in cells; host or cells: A549 cells transiently transfected with the MMTV-LUC reporter
Experiment: Trans-Activation Modulation of Glucocorticoid Receptor (GRAMMER), MMTV-LUC reporter gene in A549 cells
Format: cell-based
Settings: inflection point; A549 cells; Table 1; read-out: Transactivation A549 Cells GRAMMER IP
Property: pEC50; scope: individual compounds
Units for pEC50: none; it is -log10 of a concentration expressed in mol/L.

* CCN(CC)C(=O)[C@H]1CCC2=Cc3c(cnn3-c3ccc(F)cc3)C[C@@]21C [Compound 55] | 5.30
* CCCCN(CCO)C(=O)[C@H]1CCC2=Cc3c(cnn3-c3ccc(F)cc3)C[C@@]21C [Compound 26] | 6.09
* CCCN(CC)C(=O)[C@H]1CCC2=Cc3c(cnn3-c3ccc(F)cc3)C[C@@]21C [Compound 4] | 6.04

[Q] Give its pEC50 value. Item: C[C@]12Cc3cnn(-c4ccc(F)cc4)c3C=C1CC[C@@H]2C(=O)N(CCO)CC(O)C(F)(F)F (stereo partly shown) [Compound 60]
[A] 7.33

###

Target: Glucocorticoid Receptor (Homo sapiens, UniProt P04150)
Construct: These cells express large amount of the GR and are very responsive to GC treatment; endogenous in cells; host or cells: A549 cells transiently transfected with the MMTV-LUC reporter
Assay: Trans-Activation Modulation of Glucocorticoid Receptor (GRAMMER), MMTV-LUC reporter gene in A549 cells
Type: cell-based
Conditions: inflection point; A549 cells; Table 1; read-out: Transactivation A549 Cells GRAMMER IP
Recorded pEC50 by entry
Friendly reminder that pEC50 comes from taking -log10 of the concentration in mol/L.

Example compounds with recorded pEC50:
• C[C@]12Cc3cnn(-c4ccc(F)cc4)c3C=C1CC[C@@H]2C(=O)N(Cc1ccccc1F)CC(O)C(F)(F)F (stereo partly shown) = 6.93
• C[C@H](O)CN(CCC(F)(F)F)C(=O)[C@H]1CCC2=Cc3c(cnn3-c3ccc(F)cc3)C[C@@]21C = 6.82
• C[C@]12Cc3cnn(-c4ccc(F)cc4)c3C=C1CC[C@@H]2C(=O)N(CCO)Cc1ccccc1F = 5.84
• CCCN(CCO)C(=O)[C@H]1CCC2=Cc3c(cnn3-c3ccc(F)cc3)C[C@@]21C = 5.59
• CCN(Cc1ccccc1)C(=O)[C@H]1CCC2=Cc3c(cnn3-c3ccc(F)cc3)C[C@@]21C = 5.77

[Q] Given the entry CCCCN(CC(O)C(F)(F)F)C(=O)[C@H]1CCC2=Cc3c(cnn3-c3ccccc3)C[C@@]21C (stereo partly shown) , what pEC50 was observed with Glucocorticoid Receptor (Homo sapiens, UniProt P04150)?
[A] 6.74

[Q] Can you look up pEC50 on Glucocorticoid Receptor (Homo sapiens, UniProt P04150) for `C[C@]12Cc3cnn(-c4ccc(F)cc4)c3C=C1CC[C@@H]2C(=O)Nc1ccccc1S(N)(=O)=O` ?
[A] 7.34

###

Target: human GR (Homo sapiens)
Construct: U937 cells contain an endogenous glucocorticoid receptor (GR); endogenous in cells; host or cells: U937 cells stably transfected with the TNF-alpha promoter/beta-lactamase reporter
Test: Transrepression Assay (GITAR), TNFα-β-lactamase reporter gene in U937 cells
Format: cell-based
Details: U-937, U937 cells; activity repressed by 100 nM dexamethasone = 100%; Table 1; read-out: Transrepression U937 Cells GITAR Emax
experimental.readout: Emax (%)
Enter your answer as a number in %; do not include the unit.

Below are worked cases with known answers.
* CCCCN(CCO)C(=O)[C@H]1CCC2=Cc3c(cnn3-c3ccc(F)cc3)C[C@@]21C | 83.4
* COC[C@H]1CCCN1C(=O)[C@H]1CCC2=Cc3c(cnn3-c3ccc(F)cc3)C[C@@]21C | 21
* C[C@]12Cc3cnn(-c4ccc(F)cc4)c3C=C1CC[C@@H]2C(=O)N1CCC(C(F)(F)F)CC1 | 64.8

[Q] Find the measured Emax: item `CCN(Cc1ccccc1)C(=O)[C@H]1CCC2=Cc3c(cnn3-c3ccc(F)cc3)C[C@@]21C` , target or system human GR (Homo sapiens).
[A] 33.2

###

Target: human GR (Homo sapiens, UniProt P04150)
Construct: U937 cells contain an endogenous glucocorticoid receptor (GR); endogenous in cells; host or cells: U937 cells stably transfected with the TNF-alpha promoter/beta-lactamase reporter
Experiment: Transrepression Assay (GITAR), TNFα-β-lactamase reporter gene in U937 cells
Format: cell-based
Details: U-937, U937 cells; activity repressed by 100 nM dexamethasone = 100%; Table 1; read-out: Transrepression U937 Cells GITAR Emax
experimental.readout: Emax

[Q] I would be grateful if you could share the reported Emax for CCCCN(CCC)C(=O)[C@H]1CCC2=Cc3c(cnn3-c3ccc(F)cc3)C[C@@]21C [Compound 56] .
[A] 68.1%

[Q] Return reported Emax; argument: C[C@]12Cc3cnn(-c4ccc(F)cc4)c3C=C1CC[C@@H]2C(=O)N1CCCCC1Cc1ccccc1 (stereo partly shown) [Compound 22]
[A] 17.3%

[Q] Can you share its Emax? I mean this molecule: CCCN(CCC(F)(F)F)C(=O)[C@H]1CCC2=Cc3c(cnn3-c3ccc(F)cc3)C[C@@]21C [Compound 88]
[A] 73.9%

[Q] Param item = CCCN(C[C@H](C)O)C(=O)[C@H]1CCC2=Cc3c(cnn3-c3ccc(F)cc3)C[C@@]21C [Compound 65] ; retrieve measured Emax.
[A] 81.2%
